Test system: 415267-285-R-J2-PDC complex spheroid viability;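 further: luminescence used as stand-in measure of viable cells; spheroids exposed to compounds for one week before readout; 100% = DMSO vehicle control viability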
testMethodNotes: Anticancer human tumor 415267-285-R-J2-PDC patient-derived breast carcinoma cell line growth inhibition [POLQ]
particulars: second compound 1 µM; first compound 0.316 µM; stronger effect = lower value
What viability, T/C was measured for each of the following?

{"columns": ["compound", "systemUnderTest", "viability, T/C"],
 "data": [
  ["COc1cc(C2c3cc4c(cc3C(OC3OC5COC(C)OC5C(O)C3O)C3COC(=O)C23)OCO4)cc(OC)c1O (stereo not drawn) + Cc1cccc(N(C)C(=O)C2C(O)CCN2c2nc(C)cc(C(F)(F)F)c2C#N)c1", "415267-285-R-J2-PDC complex spheroid viability", "13.1%"],
  ["CCc1c2c(nc3ccc(O)cc13)-c1cc3c(c(=O)n1C2)COC(=O)[C@]3(O)CC + COC1C(OC(N)=O)C(O)C(Oc2ccc3c(O)c(NC(=O)c4ccc(O)c(CC=C(C)C)c4)c(=O)oc3c2C)OC1(C)C", "415267-285-R-J2-PDC complex spheroid viability", "4.05%"]
]}

(Q) Reported viability, T/C for COc1cc2cc(C(=O)CCC(=O)O)sc2cc1OC + Cc1cccc(N(C)C(=O)C2C(O)CCN2c2nc(C)cc(C(F)(F)F)c2C#N)c1 : what is it?
(A) 95.3%
